// provenance: paper PMC11300463

target: DmGr64a (Drosophila melanogaster, UniProt P83293); construct: purified homotetramer for cryo-EM; residues Y234, W260, F333, L338, L339, F342, E399, F403, I420, V438, L439, Q441; assay: calcium imaging, HEK293 cells
Sequence (P83293 whole entry): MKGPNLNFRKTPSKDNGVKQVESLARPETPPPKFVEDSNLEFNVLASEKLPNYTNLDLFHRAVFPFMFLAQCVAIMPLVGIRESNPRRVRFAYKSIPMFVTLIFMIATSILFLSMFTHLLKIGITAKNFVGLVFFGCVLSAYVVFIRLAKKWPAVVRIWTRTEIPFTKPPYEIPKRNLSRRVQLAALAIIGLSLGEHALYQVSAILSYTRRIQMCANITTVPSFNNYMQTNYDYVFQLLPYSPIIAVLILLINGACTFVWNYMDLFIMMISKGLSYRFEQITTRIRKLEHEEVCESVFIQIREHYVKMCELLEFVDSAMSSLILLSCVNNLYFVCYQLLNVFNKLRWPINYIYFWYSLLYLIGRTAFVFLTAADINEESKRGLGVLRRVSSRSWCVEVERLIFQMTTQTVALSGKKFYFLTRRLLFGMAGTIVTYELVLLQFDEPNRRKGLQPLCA
Measured endpoint: EC50

Req: Value lookup for EC50; key = "OC[C@H]1O[C@@](CO)(O[C@H]2O[C@H](CO)[C@@H](O)[C@H](O)[C@H]2O)[C@@H](O)[C@@H]1O"
Resp: ~1770 µM

---

Molecular target: DmoGr43a (Drosophila mojavensis)
Construct: purified homotetramer for cryo-EM; printed residues R70, Y312, F313, F315, L386, I418, L419, I420, F422
Sequence (B4KNE2 1-427): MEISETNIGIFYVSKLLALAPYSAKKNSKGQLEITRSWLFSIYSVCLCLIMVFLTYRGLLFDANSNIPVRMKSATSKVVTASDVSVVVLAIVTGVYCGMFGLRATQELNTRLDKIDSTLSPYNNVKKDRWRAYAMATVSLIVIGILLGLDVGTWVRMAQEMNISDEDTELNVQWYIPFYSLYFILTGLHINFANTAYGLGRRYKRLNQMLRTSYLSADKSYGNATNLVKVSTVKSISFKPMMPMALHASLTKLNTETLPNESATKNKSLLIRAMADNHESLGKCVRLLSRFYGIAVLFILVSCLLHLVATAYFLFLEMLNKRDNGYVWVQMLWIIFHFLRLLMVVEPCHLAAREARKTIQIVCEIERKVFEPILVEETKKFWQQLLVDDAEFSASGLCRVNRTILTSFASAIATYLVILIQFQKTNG
Experiment: electrophysiology, HEK293 cells
Conditions: activation; also calcium imaging; cryo-EM structure of complex
Measured endpoint: pEC50
# pEC50 = -log10(concentration in molar units)

Req: Value lookup for pEC50; key = OCC1(O)OC[C@@H](O)[C@@H](O)[C@@H]1O (stereo partly shown) [fructose]
Resp: 1.37
